- Test system: A498 renal
- test-summary: NCI tumour cell line growth inhibition, 48 h
Task for the reader: assign each of the following compounds its reported TGI.

[in] Retrieve TGI measured for CN(C(=O)C12C3C4C1C1C2C3C41C(=O)C(C)(C)C)C(C)(C)C (stereo not drawn) and print it.
[out] > 100 µM

[in] Retrieve TGI measured for O=C1c2c(c3c4ccccc4n(CCCCCCBr)c3c3[nH]c4ccccc4c23)C(=O)N1O and print it.
[out] 9.14 µM

[in] Retrieve TGI measured for COC(=O)C(/C(=N/NC(N)=O)C(=O)Nc1ccc(C)cc1)c1nc2ccc([N+](=O)[O-])cc2[nH]c1=O (stereo not drawn) and print it.
[out] > 100 µM

###

- Test system: HOP-62 NSCLC
- test-summary: NCI tumour cell line growth inhibition, 48 h
experimental-endpoint: TGI

[in] Retrieve TGI measured for COc1cccc(-c2cc(=O)c3ccccc3o2)c1N and print it.
[out] > 100 µM

[in] Retrieve TGI measured for CCN(CC)CCc1c2c(nc3ccccc13)C(=O)c1cccnc1C2=O and print it.
[out] 11.8 µM

[in] Retrieve TGI measured for CCCc1cc(=O)c2c(C)c3[nH]c4ccc(Cl)cc4c3c(C)c2[nH]1 and print it.
[out] 6.15 µM

###

- Tested on: HCT-15 colon
- test-summary: NCI tumour cell line growth inhibition, 48 h
experimental-endpoint: TGI (µM)
Lab book: enter the figure in µM, no units written.

[in] Retrieve TGI measured for CC1=C(O)C(=O)[C@@H]2O[C@@H]2C1=O and print it.
[out] 22

[in] Retrieve TGI measured for CN(C)CCNc1cc(-c2ccccc2)nc2ccccc12 and print it.
[out] 62.5

[in] Retrieve TGI measured for CC12CC[C@@H](C(C)(C)O)C1[C@@H](O)CC1(C)C2CCC2[C@@]3(C)CC[C@H](O)C(C)(C)C3C(O)C[C@]21C (some centres undefined) and print it.
[out] 29.4

[in] Retrieve TGI measured for Nc1cc(CO)cc(Nc2nc3ccc(Cl)cc3c3[nH]c4ccccc4c23)c1 and print it.
[out] 18.6

[in] Retrieve TGI measured for O=c1oc2ccc(F)cc2c(=O)n1-c1ccc(F)cc1F and print it.
[out] 17.5

###

Task for the reader: assign each of the following compounds its reported TGI.
- Tested on: RXF 393 renal
- test-summary: NCI tumour cell line growth inhibition, 48 h

[in] Retrieve TGI measured for N#Cc1ccc(C#Cc2ccccc2C#CCCCCO)cc1 and print it.
[out] 24.4 µM

[in] Retrieve TGI measured for O=NN(Cc1ccc(Cl)cc1)C(C(=O)O)c1ccccc1 (centres undefined) and print it.
[out] > 100 µM

[in] Retrieve TGI measured for c1ccc(C2C3=C(Nc4ncnn42)c2ccccc2C3)cc1 (centres undefined) and print it.
[out] > 100 µM

[in] Retrieve TGI measured for NCC(=O)NS(=O)(=O)OC[C@H]1O[C@@H](n2cnc3c(N)ncnc32)[C@H](O)[C@@H]1O and print it.
[out] 4.2 µM

[in] Retrieve TGI measured for Cc1ccc(C)c(NC(=O)CC/C(=N\NC(=O)C(=O)NN)C(C)C(=O)c2ccc(O)cc2)c1 (centres undefined) and print it.
[out] > 100 µM

[in] Retrieve TGI measured for Cn1cc2ccccc2c1-c1nc(N)nc(F)n1 and print it.
[out] > 100 µM

[in] Retrieve TGI measured for OCCCCCNc1c2ccccc2nc2ccccc12 and print it.
[out] 10.9 µM

[in] Retrieve TGI measured for CC(C)(C)C1=C(Br)C(Br)(C(C)(C)C)OP1(=O)c1ccccc1 (centres undefined) and print it.
[out] > 100 µM

[in] Retrieve TGI measured for COc1ccc(-c2cc(-c3ccco3)c(C#N)c(=S)n2C2OC(COC(C)=O)C(OC(C)=O)C(OC(C)=O)C2OC(C)=O)cc1 (centres undefined) and print it.
[out] 21.3 µM

[in] Retrieve TGI measured for CC1OC(O[C@H]2C[C@@H](O)[C@]3(CO)[C@H]4[C@H](O)C[C@]5(C)[C@@H](C6=CC(=O)OC6)CC[C@]5(O)[C@@H]4CC[C@]3(O)C2)C(O)C(O)C1O (some centres undefined) and print it.
[out] 75.6 µM

[in] Retrieve TGI measured for O=c1[nH]n2c(=O)cc[nH]c2c1-c1nnns1 and print it.
[out] > 100 µM

[in] Retrieve TGI measured for Cn1cc(-c2cnc3ccc(NC(=O)Nc4ccc(F)c(Br)c4)cc3n2)cn1 and print it.
[out] 4.67 µM

[in] Retrieve TGI measured for O=C1OCc2c1cc1ccc(O)c(OC3OC(CO)C(O)C(O)C3O)c1c2-c1ccc2c(c1)OCO2 (centres undefined) and print it.
[out] > 100 µM

[in] Retrieve TGI measured for O=C(O)c1c2c(cc3c1CC1(Cc4ccccc4C1)C3)CCC2 and print it.
[out] > 100 µM
